System: EKVX NSCLC
Assay: NCI tumour cell line growth inhibition, 48 h

>  <Compound>
COC(=O)C1CCc2nnc(-c3ccccc3)n21 (centres undefined)

>  <Test System>
EKVX NSCLC

>  <TGI>
> 100 µM

$$$$
>  <Compound>
Cc1cc(S(=O)(=O)N=C2Nc3cccc4cccc(c34)N2)c(S)cc1Cl

>  <Test System>
EKVX NSCLC

>  <TGI>
> 100 µM

$$$$
>  <Compound>
COc1ccc2nc3cc(Cl)ccc3c(Nc3cc(CN4CCCC4)c(O)c(CN4CCCC4)c3)c2n1

>  <Test System>
EKVX NSCLC

>  <TGI>
9.68 µM

$$$$
>  <Compound>
COc1ccc2c(c1)CCc1c-2n[nH]c1-c1[nH]nc2c1CCc1cc(OC)ccc1-2

>  <Test System>
EKVX NSCLC

>  <TGI>
> 100 µM

$$$$
>  <Compound>
CC1c2[nH]c3ccccc3c2CCN1O (centres undefined)

>  <Test System>
EKVX NSCLC

>  <TGI>
> 100 µM

$$$$
>  <Compound>
C[N+](C)=c1ccc2nc3c(cc(NCCCNc4cc5oc6cc(=[N+](C)C)ccc-6nc5c5ccccc45)c4ccccc43)oc-2c1

>  <Test System>
EKVX NSCLC

>  <TGI>
18.5 µM

$$$$
>  <Compound>
C=C1C[C@@H]2O[C@H]3[C@H]4[C@@H](C[C@@H](C)[C@@H](OC(C)=O)[C@H]42)[C@@H](C)CO[C@@]3(C)[C@H](OC(=O)CCCCCCC)CC1=O

>  <Test System>
EKVX NSCLC

>  <TGI>
32.9 µM

$$$$
>  <Compound>
COc1ccc([C@@H]2OC(=O)C3C2C(=O)O[C@H]3c2ccc(OC)c(OC)c2)cc1OC (some centres undefined)

>  <Test System>
EKVX NSCLC

>  <TGI>
> 100 µM

$$$$
>  <Compound>
NCCCCNCCCN1CCOC1=O

>  <Test System>
EKVX NSCLC

>  <TGI>
> 100 µM

$$$$

###

Test system: U251 CNS
Outcome codes: active, inactive

>  <Smiles>
CN(C)CCCNc1nc2ccccc2c2[nH]c3ccccc3c12

>  <Test System>
U251 CNS

>  <Assigned Category>
inactive

$$$$
>  <Smiles>
COc1ccc(S(=O)(=O)N(C(C)=O)c2ccccc2/C=C/c2cc[n+]([O-])cc2)cc1

>  <Test System>
U251 CNS

>  <Assigned Category>
inactive

$$$$
>  <Smiles>
CNC(=O)c1cncc(/C=C/c2ccccc2Cl)c1

>  <Test System>
U251 CNS

>  <Assigned Category>
inactive

$$$$
>  <Smiles>
N#Cc1cc(S(=O)(=O)Nc2nc3ccccc3o2)c(SCc2ccccc2)cc1Cl

>  <Test System>
U251 CNS

>  <Assigned Category>
inactive

$$$$
>  <Smiles>
Cc1ccc(C(=O)NC2CC2)cc1-c1ccc2[nH]ncc2c1

>  <Test System>
U251 CNS

>  <Assigned Category>
inactive

$$$$
>  <Smiles>
CCC[CH2][Sn]1([CH2]CCC)[S]CC[N]1S(=O)(=O)c1ccc(C)cc1

>  <Test System>
U251 CNS

>  <Assigned Category>
inactive

$$$$
>  <Smiles>
CCn1c2ccccc2c2cc(C(=O)c3ccc(C)c4ccccc34)ccc21

>  <Test System>
U251 CNS

>  <Assigned Category>
active

$$$$
>  <Smiles>
COc1cc(CNc2oc(-c3ccccc3)c(-c3ccccc3)c2C#N)cc(CN2CCN(C)CC2)c1O

>  <Test System>
U251 CNS

>  <Assigned Category>
inactive

$$$$

###

Test system: SF-295 CNS
Test: NCI tumour cell line growth inhibition, 48 h
Quick reference for GI50 among some molecules

>  <Molecule>
O=C(Nc1cccc(C(F)(F)F)c1)Oc1ccc(Cl)c2cccnc12

>  <GI50>
0.976 µM

$$$$
>  <Molecule>
COc1cc2c3c(n(CCCNCCCN)c(=O)c2cc1OC)-c1cc2c(cc1C3=O)OCO2

>  <GI50>
3.69 µM

$$$$
>  <Molecule>
CN1CCN(CCCOc2cc(O)c3c(=O)cc(-c4ccccc4)oc3c2)CC1

>  <GI50>
21.1 µM

$$$$
>  <Molecule>
N#Cc1cc(S(=O)(=O)Nc2nc3ccccc3o2)c(SCc2ccccc2)cc1Cl

>  <GI50>
27.2 µM

$$$$
>  <Molecule>
CC(C)(C)OC(=O)N[C@@H](Cc1ccccc1)C(=O)N(Cc1ccccc1)C1(C(=O)NCc2ccccc2)CCN(Cc2ccccc2)CC1

>  <GI50>
2.9 µM

$$$$
>  <Molecule>
CN(C)CCCNc1nc2ccccc2c2[nH]c3ccccc3c12

>  <GI50>
0.972 µM

$$$$
>  <Molecule>
C=C1CCC2C3(C)COC(c4ccccc4Cl)OC3CCC2(C)C1/C=C/C1=CCOC1=O (stereo unspecified)

>  <GI50>
3.48 µM

$$$$
>  <Molecule>
C[N+](C)=c1ccc2nc3c(cc(NCCCNc4cc5oc6cc(=[N+](C)C)ccc-6nc5c5ccccc45)c4ccccc43)oc-2c1

>  <GI50>
4.64 µM

$$$$
>  <Molecule>
O=P(O)(O)OCC1OC(n2cnc3c(NCc4ccccc4)ncnc32)C(O)C1O (stereo unspecified)

>  <GI50>
3.09 µM

$$$$
>  <Molecule>
Cc1ccc(C(=O)NC2CC2)cc1-c1ccc2[nH]ncc2c1

>  <GI50>
> 25 µM

$$$$
>  <Molecule>
COc1cc2nccc(Oc3ccc(NC(=O)c4cn(C(C)C)c(=O)n(-c5ccc(F)cc5)c4=O)cc3F)c2cc1OC

>  <GI50>
0.435 µM

$$$$

###

Test system: SW-620 colon
Test: NCI tumour cell line growth inhibition, 48 h
Quick reference for TGI among some molecules
Measured Parameter: TGI

>  <Molecule>
O=C1NC(c2ccccc2)C2(C(=O)O)CN(C3CC3)c3cc(N4CCNCC4)c(F)cc3C2N1 (stereo not given)

>  <Reported Value>
> 100 µM

$$$$
>  <Molecule>
CSc1nc(=O)c2nc(-c3cccs3)c(-c3cccs3)nc2n1C

>  <Reported Value>
> 100 µM

$$$$
>  <Molecule>
CN1C2=Nc3n(c4ccccc4[n+]3C)CN2c2ccccc21

>  <Reported Value>
> 100 µM

$$$$
>  <Molecule>
O=C(C(=C(I)I)c1ccccc1)c1ccccc1

>  <Reported Value>
> 100 µM

$$$$
>  <Molecule>
O=C[C@@H](CO)O[C@H](C=O)n1cnc2c(=O)[nH]cnc21

>  <Reported Value>
868 µM

$$$$
>  <Molecule>
O=C1CC[C@@]23CC(=O)O[C@@H]2CCCC3C1 (stereo not given in full)

>  <Reported Value>
> 100 µM

$$$$
>  <Molecule>
O=C1NC2C(O)CCCCC2C12CCCCC2 (stereo not given)

>  <Reported Value>
> 100 µM

$$$$
>  <Molecule>
COc1cc2c3c(n(CCCNCCCN)c(=O)c2cc1OC)-c1cc2c(cc1C3=O)OCO2

>  <Reported Value>
16.4 µM

$$$$
>  <Molecule>
CCCCN(CCCC)CC(C(C)=O)C(c1ccccc1)c1c(O)c2ccccc2oc1=O (stereo not given)

>  <Reported Value>
> 100 µM

$$$$
>  <Molecule>
CC(C)(C)OC(=O)N[C@@H](Cc1ccccc1)C(=O)N(Cc1ccccc1)C1(C(=O)NCc2ccccc2)CCN(Cc2ccccc2)CC1

>  <Reported Value>
> 100 µM

$$$$

###

System: HOP-92 NSCLC
Test: NCI tumour cell line growth inhibition, 48 h
Measured Parameter: TGI (µM)

>  <Compound>
N#Cc1cccc(N2C(=O)C3C4C=CC(C3C2=O)C2C(=O)N(c3cccc(C#N)c3)C(=O)C42)c1 (stereo not given)

>  <Inequality Sign>
=

>  <Reported Value>
31.6

$$$$
>  <Compound>
C1=CCCC=CCC1.C[PH+](C)C.C[PH+](C)C.C[PH+](C)C.[Cl-].[Ir]

>  <Inequality Sign>
=

>  <Reported Value>
98.8

$$$$
>  <Compound>
COc1ccc2c(c1)CCc1c-2n[nH]c1-c1[nH]nc2c1CCc1cc(OC)ccc1-2

>  <Inequality Sign>
=

>  <Reported Value>
78.1

$$$$
>  <Compound>
Cc1nc2c(=O)n(-c3ccccc3)c(=O)n(-c3ccccc3)c2o1

>  <Inequality Sign>
>

>  <Reported Value>
100

$$$$
>  <Compound>
CC(=N/NC(=S)N(C)C)/C(=N\NC(=S)N(C)C)c1ccccc1

>  <Inequality Sign>
=

>  <Reported Value>
3.53

$$$$

###

Quick reference for GI50 among some compounds
Tested on: UACC-257 melanoma
Experiment: NCI tumour cell line growth inhibition, 48 h

>  <Compound>
COc1ccc2nc3cc(Cl)ccc3c(Nc3cc(CN4CCCC4)c(O)c(CN4CCCC4)c3)c2n1

>  <GI50>
1710 nM

$$$$
>  <Compound>
Cc1cc(O)c(-c2ccc([C@@H](C)CN(C)C)cc2)c2c1[nH]c(=O)c1sccc12

>  <GI50>
1760 nM

$$$$
>  <Compound>
CN1CCN(CCCOc2cc(O)c3c(=O)cc(-c4ccccc4)oc3c2)CC1

>  <GI50>
19400 nM

$$$$
>  <Compound>
O=C1c2cc3c(cc2-c2c1c1ccc(Cl)cc1c(=O)n2CCCn1ccnc1)OCO3

>  <GI50>
58.4 nM

$$$$
>  <Compound>
O=c1[nH]c(=O)n(C2CC(O)C(CO)O2)cc1C(F)(F)F (stereo not given)

>  <GI50>
8610 nM

$$$$
